Origin of values: ChEMBL document CHEMBL4513216

- ASSAY_NOTES: Toxicity liver stage against HepG2, at 10uM
- Type: cell-based
- Parameters: test concentration 10 uM, cell line HepG2-A16-CD81EGFP
- STATED_CONDITIONS: human, HepG2-A16-CD81EGFP cells; read-out: INHIBITION
PARAMETER: cytotoxicity at 10 µM (%)

• O=C1CN(Cc2nnc(-c3ccccc3Br)o2)CCN1 = 9.35
• Cc1cccc(NC(=O)[C@@H]2CCCN2Cc2nc3ccccc3o2)n1 = -4.61
• Cc1nc(C)c(C(=O)N2CCc3nc4sc(C)cc4c(=O)n3CC2)o1 = -9.31
• CN(CCO)C[C@@H]1CN(Cc2ccccc2-c2ccccc2)C[C@@H]1CO = -14
• CN1CCN(C[C@@H]2CN(C(=O)CCc3cn[nH]c3)C[C@@H]2CO)CC1 = -0.973
• N#Cc1ccccc1OCCN1CCCCC1C(=O)N1CCOCC1 (centres undefined) = -45.6
• Cc1nccn1-c1ccc(=O)n(CCNC(=O)Cc2ccccc2)n1 = -4.17
• CC(=O)c1cccc(OCC(=O)NS(=O)(=O)c2cccs2)c1 = -10.5
• CC(C(=O)N1CCN(CCOc2ccccc2)CC1)n1cncn1 (centres undefined) = -4.88
• C[C@@H]1CN2C[C@H](O)CC2CN1Cc1ccncc1 (some centres undefined) = 0.207
• CC(=O)Nc1nc(CS(=O)(=O)CCCc2ccccc2)cs1 = -1.2
• CC(Cn1cccn1)NCc1nc(-c2ccco2)no1 (centres undefined) = -2.66
• O=C(Nc1cccc(C(F)(F)F)c1)N1CCN(CCn2ccnc2)CC1 = -25.3
• O=C(Nc1ccc(-c2csnn2)cc1)N1CCN2CCCCC2C1 (centres undefined) = -7.23
